ASSAYED_SYSTEM: T1, human PAC1 receptor (human, UniProt P41586 21-468)
T1 sequence (looked up): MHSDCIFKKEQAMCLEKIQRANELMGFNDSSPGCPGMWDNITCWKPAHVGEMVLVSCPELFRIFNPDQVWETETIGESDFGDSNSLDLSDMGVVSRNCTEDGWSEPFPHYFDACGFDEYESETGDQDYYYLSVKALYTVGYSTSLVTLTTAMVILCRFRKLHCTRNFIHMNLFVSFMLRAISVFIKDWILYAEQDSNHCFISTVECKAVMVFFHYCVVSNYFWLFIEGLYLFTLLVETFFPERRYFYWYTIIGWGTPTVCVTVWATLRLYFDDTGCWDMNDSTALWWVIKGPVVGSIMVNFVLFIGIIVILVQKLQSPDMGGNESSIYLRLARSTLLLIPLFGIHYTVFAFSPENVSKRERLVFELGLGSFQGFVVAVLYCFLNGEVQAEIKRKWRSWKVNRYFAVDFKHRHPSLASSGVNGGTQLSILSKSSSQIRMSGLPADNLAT
ASSAY: cell-based or functional assay
// reported EC50 cAMP, DiscoveRx per item
Expressed in nM, but write only the number.

The examples below pair each entry with its known result.
BINDER | EC50 cAMP, DiscoveRx / nM
HPDAVFTDNYTRLRKQVAAKKYLQSIKNKRYGGPSSGAPPPS [P49] | 44.2
HSDAFFTDNYTRLRKQVAAKKYLQSIKNKRYGGPSSGAPPPS [P58] | 35.6
HSDAVITDNYTRLRKQVAAKKYLQSIKNKRYGGPSSGAPPPS [P63] | 0.9
HGDAVFTDNYTRLRKQVAAKKYLQSIKNKRYGGPSSGAPPPS [P43] | 104

Shift focus to the following entry.
Problem: Could you please provide reported EC50 cAMP, DiscoveRx for HSDAVFTDNYTRLRKQVAAKKYLQSIQNKRYGGPSSGAPPPS [P74] ? Thanks!
Solution: 145
